ASSAY TARGET: GDP-loaded K-Ras (1-169) C51S, C80L, C118S (Homo sapiens, UniProt P01116, C118S/C51S/C80L)
Construct: GDP-loaded K-Ras (1-169) C51S, C80L, C118S
ASSAY NOTES: K-Ras WT (GDP) cross-linking assay (conjugate formation, TOF mass spectrometry)
Type: binding
PARTICULARS: Table 5; percent covalently modified K-Ras by MS; room temperature; typical compound conc. 2, 10, 25 μM, endpoints 1 and 24 h
ATTRIBUTE MEASURED: WT x-linking (%)

Please review the following examples before continuing.
[
  {
    "COMPOUND": "Cc1cccc2cccc(N3CCc4c(nc(OC[C@@H]5CCCN5C)nc4N4CCN(C(=O)[C@H]5CN5S(C)(=O)=O)[C@@H](CC#N)C4)C3)c12 (stereo partly shown)",
    "REPORTED RESULT": "+ (0 < x ≤ 20)"
  },
  {
    "COMPOUND": "Cc1cccc2cccc(N3CCc4c(nc(OC[C@@H]5CCCN5C)nc4N4CCC(N=C=NCc5ccon5)CC4)C3)c12",
    "REPORTED RESULT": "++ (20 < x ≤ 100)"
  },
  {
    "COMPOUND": "CCCN=C=NCC1CCN(c2nc(=O)n(-c3c(C)ccnc3C(C)C)c3nc(-c4ccccc4F)c(F)cc23)CC1",
    "REPORTED RESULT": "++ (20 < x ≤ 100)"
  },
  {
    "COMPOUND": "COCCN=C=NCC1CCN(c2nc(OC[C@@H]3CCCN3C)nc3c2CCN(c2cccc4cccc(C)c24)C3)CC1",
    "REPORTED RESULT": "++ (20 < x ≤ 100)"
  },
  {
    "COMPOUND": "Cc1cccc2cccc(N3CCc4c(nc(OC[C@@H]5CCCN5C)nc4N4CC[C@@H](NC(=O)C5CN5)C4)C3)c12 (stereo partly shown)",
    "REPORTED RESULT": 0
  },
  {
    "COMPOUND": "COC1CC1N=C=NC1CCN(c2nc(OC[C@@H]3CCCN3C)nc3c2CCN(c2cccc4cccc(C)c24)C3)CC1 (stereo partly shown)",
    "REPORTED RESULT": "+ (0 < x ≤ 20)"
  }
]

Please find the next compound below.
q: Determine from records and report WT x-linking (%) for `C#CCCN1CCC[C@H]1COc1nc2c(c(N3CCN(C(=O)[C@H]4CN4)[C@@H](CC#N)C3)n1)CCN(c1cccc3cccc(C)c13)C2`
a: + (0 < x ≤ 20)
